Data provenance is patent US12612427B2.

Target: human SGLT1 (Homo sapiens)
Sequence (P13866 whole entry): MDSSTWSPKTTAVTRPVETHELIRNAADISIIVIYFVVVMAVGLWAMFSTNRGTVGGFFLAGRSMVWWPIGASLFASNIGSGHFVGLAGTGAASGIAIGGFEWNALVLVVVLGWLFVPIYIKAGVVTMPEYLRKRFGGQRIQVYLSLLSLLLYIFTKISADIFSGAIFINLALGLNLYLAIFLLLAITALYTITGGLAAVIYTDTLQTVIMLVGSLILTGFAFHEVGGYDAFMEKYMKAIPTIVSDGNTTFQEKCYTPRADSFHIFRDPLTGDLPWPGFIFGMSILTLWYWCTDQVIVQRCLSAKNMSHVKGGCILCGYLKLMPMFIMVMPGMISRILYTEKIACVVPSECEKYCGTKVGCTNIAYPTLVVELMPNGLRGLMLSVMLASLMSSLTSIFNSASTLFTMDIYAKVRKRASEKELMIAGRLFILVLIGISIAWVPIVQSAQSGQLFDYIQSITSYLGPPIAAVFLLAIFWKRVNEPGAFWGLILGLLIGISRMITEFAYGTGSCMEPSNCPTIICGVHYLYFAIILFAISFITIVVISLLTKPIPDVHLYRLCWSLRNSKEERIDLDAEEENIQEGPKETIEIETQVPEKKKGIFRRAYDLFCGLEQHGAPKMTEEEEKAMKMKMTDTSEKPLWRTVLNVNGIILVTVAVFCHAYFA
Experiment: hSGLT1 inhibitor activity experiment 2: 2-NBDG uptake by HEK293 cells stably expressing human SGLT1
Settings: 2-NBDG uptake, HEK293 stably expressing human SGLT1; read-out: SGLT1 Inhibitory Activity
endpointLabel: pIC50
pIC50 is a log-scale quantity: -log10 of the concentration expressed in molar.

> print(dat)
                               smilesrecord  endpointlabel  recordedvalue
1  C#CCN(C)C(=O)CN1CCN(C(=O)C(C)(C)NC(=O)CCCc2ccc(Cc3cc([C@@H]4O[C@H](SC)[C@@H](O)[C@H](O)[C@H]4O)ccc3C)cc2)CC1          pIC50           9.31
2  C#CCN(CCNC(=O)C(C)(C)NC(=O)CCCc1ccc(Cc2cc([C@@H]3O[C@H](SC)[C@@H](O)[C@H](O)[C@H]3O)ccc2C)cc1)CC(=O)N1CCCC1          pIC50           9.28
3  CS[C@H]1O[C@@H](c2ccc(C)c(Cc3ccc(CCCC(=O)NC(C)(C)C(=O)N4CCN(CC(=O)N5CCCC5)CC4)cc3)c2)[C@H](O)[C@@H](O)[C@@H]1O          pIC50           9.06

compound CS[C@H]1O[C@@H](c2ccc(C)c(Cc3ccc(CCCC(=O)NC(C)(C)C(=O)NCCN(C)CC(=O)N4CCN(C)CC4)cc3)c2)[C@H](O)[C@@H](O)[C@@H]1O , pIC50 observed: 9.03

compound C#CCN(C)C(=O)CN(C)CCNC(=O)C(C)(C)NC(=O)CCCc1ccc(Cc2cc([C@@H]3O[C@H](SC)[C@@H](O)[C@H](O)[C@H]3O)ccc2C)cc1 , pIC50 observed: 9.43

compound CS[C@H]1O[C@@H](c2ccc(C)c(Cc3ccc(CCCC(=O)NC(C)(C)C(=O)NCCN(C)CC(=O)N(C)C)cc3)c2)[C@H](O)[C@@H](O)[C@@H]1O , pIC50 observed: 8.95

compound CS[C@H]1O[C@@H](c2ccc(C)c(Cc3ccc(CCCC(=O)NC(C)(C)C(=O)NCCN(C)CC(=O)N4CCCC4)cc3)c2)[C@H](O)[C@@H](O)[C@@H]1O , pIC50 observed: 9.11
